- subject-of-test: BSA (Bos taurus, UniProt P02769)
- Construct: purchased Aladdin's Reagent Co., Ltd. (Shanghai, China)
- Sequence (P02769 25-607): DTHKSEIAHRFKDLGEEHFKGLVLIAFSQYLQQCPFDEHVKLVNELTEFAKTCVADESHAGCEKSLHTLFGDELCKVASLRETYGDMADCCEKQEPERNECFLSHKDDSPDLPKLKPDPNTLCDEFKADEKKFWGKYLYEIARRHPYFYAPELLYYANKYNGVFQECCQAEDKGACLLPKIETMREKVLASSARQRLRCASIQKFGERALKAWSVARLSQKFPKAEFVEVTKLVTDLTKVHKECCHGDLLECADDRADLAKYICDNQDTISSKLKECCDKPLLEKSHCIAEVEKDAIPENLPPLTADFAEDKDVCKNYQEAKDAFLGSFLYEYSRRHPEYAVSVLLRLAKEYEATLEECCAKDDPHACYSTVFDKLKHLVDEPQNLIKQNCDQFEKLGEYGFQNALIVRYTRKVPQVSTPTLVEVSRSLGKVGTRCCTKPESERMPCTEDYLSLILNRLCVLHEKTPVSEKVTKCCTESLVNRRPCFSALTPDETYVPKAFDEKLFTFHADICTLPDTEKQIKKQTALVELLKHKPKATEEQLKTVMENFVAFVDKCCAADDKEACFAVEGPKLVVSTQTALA
- assay-overview: Fluorescence quenching of BSA (Stern-Volmer, double-log, van't Hoff)
- Type: binding, bovine
- experimental-parameters: van't Hoff, 298-310 K
property-name: ΔH (kJ/M)

Consider the reported ΔH for these molecules:
[
  {
    "molecule": "COC(=O)C(CC(C)C)NC(=O)COc1cc(O)c2c(=O)c(-c3ccc(O)cc3)coc2c1 (centres unmarked) [4d]",
    "subject-of-test": "BSA (Bos taurus, UniProt P02769)",
    "readout-number": -126.67
  },
  {
    "molecule": "COC(=O)C(C)NC(=O)COc1cc(O)c2c(=O)c(-c3ccc(O)cc3)coc2c1 (centres unmarked) [4b]",
    "subject-of-test": "BSA (Bos taurus, UniProt P02769)",
    "readout-number": -175.21
  },
  {
    "molecule": "O=c1c(-c2ccc(O)cc2)coc2cc(O)cc(O)c12 [Genistein]",
    "subject-of-test": "BSA (Bos taurus, UniProt P02769)",
    "readout-number": -59.09
  }
]

(1) COC(=O)CNC(=O)COc1cc(O)c2c(=O)c(-c3ccc(O)cc3)coc2c1 [4a]
(2) COC(=O)C(NC(=O)COc1cc(O)c2c(=O)c(-c3ccc(O)cc3)coc2c1)C(C)C (centres unmarked) [4c]
Record comparison, field ΔH: mark the lower of 1 and 2 . Could you answer with the label of the item you picked?
2
(2: -177.34 kJ/M, 1: -123.52 kJ/M)

----------
- subject-of-test: BSA (Bos taurus)
- Construct: purchased Aladdin's Reagent Co., Ltd. (Shanghai, China)
- assay-overview: Three-dimensional fluorescence spectroscopy of BSA
- Assay type: binding, bovine
- experimental-parameters: Peak 2, [BSA]:[compound] = 1:3, 298 K
property-name: 3D fluorescence intensity (a.u)

[
  {
    "molecule": "O=c1c(-c2ccc(O)cc2)coc2cc(O)cc(O)c12 [Genistein]",
    "units-of-measure": "a.u",
    "3D fluorescence intensity": 333.2
  },
  {
    "molecule": "COC(=O)C(NC(=O)COc1cc(O)c2c(=O)c(-c3ccc(O)cc3)coc2c1)C(C)C (centres unmarked) [4c]",
    "units-of-measure": "a.u",
    "3D fluorescence intensity": 338.3
  },
  {
    "molecule": "COC(=O)CNC(=O)COc1cc(O)c2c(=O)c(-c3ccc(O)cc3)coc2c1 [4a]",
    "units-of-measure": "a.u",
    "3D fluorescence intensity": 300.8
  },
  {
    "molecule": "COC(=O)C(CC(C)C)NC(=O)COc1cc(O)c2c(=O)c(-c3ccc(O)cc3)coc2c1 (centres unmarked) [4d]",
    "units-of-measure": "a.u",
    "3D fluorescence intensity": 331.4
  },
  {
    "molecule": "COC(=O)C(C)NC(=O)COc1cc(O)c2c(=O)c(-c3ccc(O)cc3)coc2c1 (centres unmarked) [4b]",
    "units-of-measure": "a.u",
    "3D fluorescence intensity": 242.6
  }
]

----------
Each entry below carries its reported K q (quenching rate constant).
- subject-of-test: BSA (Bos taurus, UniProt P02769)
- Construct: purchased Aladdin's Reagent Co., Ltd. (Shanghai, China)
- assay-overview: Fluorescence quenching of BSA (Stern-Volmer, double-log, van't Hoff)
- Type: binding, bovine
- experimental-parameters: T 310 K, τ0 = 10^−8 s

What the record says about COC(=O)C(NC(=O)COc1cc(O)c2c(=O)c(-c3ccc(O)cc3)coc2c1)C(C)C (stereo not shown) [4c] : K q (quenching rate constant) is 4.8646 10^12 M^−1 s^−1

What the record says about COC(=O)C(CC(C)C)NC(=O)COc1cc(O)c2c(=O)c(-c3ccc(O)cc3)coc2c1 (stereo not shown) [4d] : K q (quenching rate constant) is 4.5804 10^12 M^−1 s^−1

What the record says about COC(=O)CNC(=O)COc1cc(O)c2c(=O)c(-c3ccc(O)cc3)coc2c1 [4a] : K q (quenching rate constant) is 7.7362 10^12 M^−1 s^−1

What the record says about O=c1c(-c2ccc(O)cc2)coc2cc(O)cc(O)c12 [Genistein] : K q (quenching rate constant) is 4.3285 10^12 M^−1 s^−1

----------
Each entry below carries its reported K SV (quenching constant).
- subject-of-test: BSA (Bos taurus, UniProt P02769)
- Construct: purchased Aladdin's Reagent Co., Ltd. (Shanghai, China)
- assay-overview: Fluorescence quenching of BSA (Stern-Volmer, double-log, van't Hoff)
- Assay type: binding, bovine
- experimental-parameters: T 298 K, BSA 1 μM, pH 7.4

[
  {
    "compound": "COC(=O)C(CC(C)C)NC(=O)COc1cc(O)c2c(=O)c(-c3ccc(O)cc3)coc2c1 (centres unmarked)",
    "result": "4.9339 ± 0.0500 10^4 M^−1"
  },
  {
    "compound": "O=c1c(-c2ccc(O)cc2)coc2cc(O)cc(O)c12",
    "result": "6.2416 ± 0.0984 10^4 M^−1"
  },
  {
    "compound": "COC(=O)CNC(=O)COc1cc(O)c2c(=O)c(-c3ccc(O)cc3)coc2c1",
    "result": "9.3690 ± 0.1055 10^4 M^−1"
  },
  {
    "compound": "COC(=O)C(C)NC(=O)COc1cc(O)c2c(=O)c(-c3ccc(O)cc3)coc2c1 (centres unmarked)",
    "result": "8.0160 ± 0.1379 10^4 M^−1"
  }
]

The compound COC(=O)C(NC(=O)COc1cc(O)c2c(=O)c(-c3ccc(O)cc3)coc2c1)C(C)C (centres unmarked) on BSA (Bos taurus, UniProt P02769): K SV (quenching constant) was 6.2575 ± 0.1717 10^4 M^−1

----------
- subject-of-test: BSA (Bos taurus)
- Construct: purchased Aladdin's Reagent Co., Ltd. (Shanghai, China)
- assay-overview: Three-dimensional fluorescence spectroscopy of BSA
- Assay type: binding, bovine
- experimental-parameters: Peak 1, [BSA]:[compound] = 1:3, 298 K
Each entry below carries its reported 3D fluorescence peak position λex/λem.

[
  {
    "compound": "O=c1c(-c2ccc(O)cc2)coc2cc(O)cc(O)c12",
    "result": "230/355"
  },
  {
    "compound": "COC(=O)C(CC(C)C)NC(=O)COc1cc(O)c2c(=O)c(-c3ccc(O)cc3)coc2c1 (centres unmarked)",
    "result": "230/355"
  },
  {
    "compound": "COC(=O)C(NC(=O)COc1cc(O)c2c(=O)c(-c3ccc(O)cc3)coc2c1)C(C)C (centres unmarked)",
    "result": "230/355"
  },
  {
    "compound": "COC(=O)CNC(=O)COc1cc(O)c2c(=O)c(-c3ccc(O)cc3)coc2c1",
    "result": "230/355"
  }
]

Continue with the compound presented below.
What the record says about COC(=O)C(C)NC(=O)COc1cc(O)c2c(=O)c(-c3ccc(O)cc3)coc2c1 (centres unmarked) : 3D fluorescence peak position λex/λem is 230/355

----------
Each entry below carries its reported IC50.
- System: HCT-116
- assay-overview: MTT cytotoxicity assay, HCT-116
- Format: cell-based
- experimental-parameters: Homo sapiens, 48 h, mean ± SD of three experiments, read-out: Cancer cell lines IC50, HCT-116
Expressed in µM, but write only the number.

Consider the reported IC50 for these compounds:
[
  {
    "compound": "COC(=O)C(CC(C)C)NC(=O)COc1cc(O)c2c(=O)c(-c3ccc(O)cc3)coc2c1 (centres unmarked)",
    "units-of-measure": "µM",
    "IC50": 92.9
  },
  {
    "compound": "COC(=O)C(NC(=O)COc1cc(O)c2c(=O)c(-c3ccc(O)cc3)coc2c1)C(C)C (centres unmarked)",
    "units-of-measure": "µM",
    "IC50": 42.6
  }
]

What the record says about COC(=O)CNC(=O)COc1cc(O)c2c(=O)c(-c3ccc(O)cc3)coc2c1 : IC50 is 65.3

----------
- subject-of-test: BSA (Bos taurus, UniProt P02769)
- Construct: purchased Aladdin's Reagent Co., Ltd. (Shanghai, China)
- assay-overview: Fluorescence quenching of BSA (Stern-Volmer, double-log, van't Hoff)
- Assay type: binding, bovine
- experimental-parameters: van't Hoff, 298-310 K
property-name: ΔS (J K^−1 M^−1)

Consider the reported ΔS for these compounds:
[
  {
    "compound": "COC(=O)C(C)NC(=O)COc1cc(O)c2c(=O)c(-c3ccc(O)cc3)coc2c1 (centres unmarked)",
    "units-of-measure": "J K^−1 M^−1",
    "ΔS": "−446.98"
  },
  {
    "compound": "COC(=O)CNC(=O)COc1cc(O)c2c(=O)c(-c3ccc(O)cc3)coc2c1",
    "units-of-measure": "J K^−1 M^−1",
    "ΔS": "−249.37"
  }
]

(a) COC(=O)C(CC(C)C)NC(=O)COc1cc(O)c2c(=O)c(-c3ccc(O)cc3)coc2c1 (centres unmarked)
(b) COC(=O)C(NC(=O)COc1cc(O)c2c(=O)c(-c3ccc(O)cc3)coc2c1)C(C)C (centres unmarked)
# returns the entry with the larger ΔS; inputs a and b Could you answer with the label of the item you picked?
a
